Target: KLHDC2 (Homo sapiens, UniProt Q9Y2U9)
Construct: human KLHDC2 (UniProt: Q9Y2U9, amino acid 1–362); made in house; host or cells: HighFive insect cells (baculovirus, pFastBac)
Sequence (Q9Y2U9 1-362): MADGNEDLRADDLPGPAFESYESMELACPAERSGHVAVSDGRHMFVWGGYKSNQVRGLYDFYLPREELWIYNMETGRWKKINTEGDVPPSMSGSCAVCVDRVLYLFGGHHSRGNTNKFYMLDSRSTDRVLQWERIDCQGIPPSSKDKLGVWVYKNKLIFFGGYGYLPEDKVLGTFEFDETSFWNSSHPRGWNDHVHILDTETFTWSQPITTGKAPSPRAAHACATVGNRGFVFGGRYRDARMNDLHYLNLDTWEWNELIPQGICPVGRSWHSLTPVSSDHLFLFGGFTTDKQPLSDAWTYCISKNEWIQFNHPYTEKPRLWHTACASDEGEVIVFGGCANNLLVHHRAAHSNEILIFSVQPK
Test: AlphaLISA competition assay (displacement of SelK C-end degron peptide from GST-KLHDC2)
Assay type: binding
Conditions: IC50, competition with biotinylated 12 aa SelK degron peptide; 12-point titration, n = 3 technical replicates
ENDPOINT: pIC50
On this scale, pIC50 is minus log10 of a concentration expressed in M (mol/L).

Item C=CCN(Cc1cn(CC(=O)O)nn1)C(=O)CCSCc1ccccc1 [Compound C2.19] has what recorded pIC50?
5.47

May I ask what pIC50 has been recorded for CC(NC(=O)CSCc1nc2ccccc2s1)c1cn(CC(=O)O)nn1 (centres unmarked) [Compound C2.20] ?
5.39

Need pIC50, item CC1(C)CCCC(CC(=O)NC(C)(C)CNC(=O)c2ccnnc2S)C1 (centres unmarked) [Compound C6]
3.91

Value lookup for pIC50; key = O=C(O)Cn1cc(CNC(=O)c2ccccc2SCC2CCCO2)nn1 (centres unmarked) [Compound C2.16]
5.48

Could you tell me which pIC50 is on file for C=CCN(Cc1cn(CC(=O)O)nn1)C(=O)CSc1cc(C)ccc1C [Compound C2.6] ?
5.21

Please report the recorded pIC50 for CC(=CC(=O)N1CCN(C(=O)Cc2cnc3ncccn23)C2CC21)C(C)C (centres unmarked) [Compound C1] .
3.31

Could you share which pIC50 value was measured for COc1ccc(CN(C)C(=O)COC(=O)Cn2ccnn2)cc1OC [Compound C18] ?
3.42

Please give the measured pIC50 for this compound: CN(Cc1cn(CC(=O)O)nn1)C(=O)CCCSc1ccc(Cl)cc1 [Compound C2.4]
5.00

For the compound shown here, C[C@H]1CN(C(=O)C(OC(C)(C)C)C(C)(C)C)C[C@H]1NC(=O)CCn1ccnn1 (some centres unmarked) [Compound C4] , give the reported pIC50.
2.68

Quick check: pIC50 of Cc1cc(C(=O)NCCCn2cnnn2)c(C)n1Cc1ccccc1 [Compound C17] ?
3.92

Consider the compound shown here: Cc1cc(C)c(C(=O)NCC(=O)NCc2cn(CC(=O)O)nn2)s1 [Compound C2.8] What is its recorded pIC50?
5.96

----------
target: human NaV1.5 (Homo sapiens, UniProt Q14524); construct: expressed in transfected cells; test: Whole-cell patch-clamp electrophysiology on human NaV1.5 stably expressed in HEK-293 cells; format: cell-based; settings: -80 mV holding potential (inactivated state); mean
Sequence (Q14524 whole entry): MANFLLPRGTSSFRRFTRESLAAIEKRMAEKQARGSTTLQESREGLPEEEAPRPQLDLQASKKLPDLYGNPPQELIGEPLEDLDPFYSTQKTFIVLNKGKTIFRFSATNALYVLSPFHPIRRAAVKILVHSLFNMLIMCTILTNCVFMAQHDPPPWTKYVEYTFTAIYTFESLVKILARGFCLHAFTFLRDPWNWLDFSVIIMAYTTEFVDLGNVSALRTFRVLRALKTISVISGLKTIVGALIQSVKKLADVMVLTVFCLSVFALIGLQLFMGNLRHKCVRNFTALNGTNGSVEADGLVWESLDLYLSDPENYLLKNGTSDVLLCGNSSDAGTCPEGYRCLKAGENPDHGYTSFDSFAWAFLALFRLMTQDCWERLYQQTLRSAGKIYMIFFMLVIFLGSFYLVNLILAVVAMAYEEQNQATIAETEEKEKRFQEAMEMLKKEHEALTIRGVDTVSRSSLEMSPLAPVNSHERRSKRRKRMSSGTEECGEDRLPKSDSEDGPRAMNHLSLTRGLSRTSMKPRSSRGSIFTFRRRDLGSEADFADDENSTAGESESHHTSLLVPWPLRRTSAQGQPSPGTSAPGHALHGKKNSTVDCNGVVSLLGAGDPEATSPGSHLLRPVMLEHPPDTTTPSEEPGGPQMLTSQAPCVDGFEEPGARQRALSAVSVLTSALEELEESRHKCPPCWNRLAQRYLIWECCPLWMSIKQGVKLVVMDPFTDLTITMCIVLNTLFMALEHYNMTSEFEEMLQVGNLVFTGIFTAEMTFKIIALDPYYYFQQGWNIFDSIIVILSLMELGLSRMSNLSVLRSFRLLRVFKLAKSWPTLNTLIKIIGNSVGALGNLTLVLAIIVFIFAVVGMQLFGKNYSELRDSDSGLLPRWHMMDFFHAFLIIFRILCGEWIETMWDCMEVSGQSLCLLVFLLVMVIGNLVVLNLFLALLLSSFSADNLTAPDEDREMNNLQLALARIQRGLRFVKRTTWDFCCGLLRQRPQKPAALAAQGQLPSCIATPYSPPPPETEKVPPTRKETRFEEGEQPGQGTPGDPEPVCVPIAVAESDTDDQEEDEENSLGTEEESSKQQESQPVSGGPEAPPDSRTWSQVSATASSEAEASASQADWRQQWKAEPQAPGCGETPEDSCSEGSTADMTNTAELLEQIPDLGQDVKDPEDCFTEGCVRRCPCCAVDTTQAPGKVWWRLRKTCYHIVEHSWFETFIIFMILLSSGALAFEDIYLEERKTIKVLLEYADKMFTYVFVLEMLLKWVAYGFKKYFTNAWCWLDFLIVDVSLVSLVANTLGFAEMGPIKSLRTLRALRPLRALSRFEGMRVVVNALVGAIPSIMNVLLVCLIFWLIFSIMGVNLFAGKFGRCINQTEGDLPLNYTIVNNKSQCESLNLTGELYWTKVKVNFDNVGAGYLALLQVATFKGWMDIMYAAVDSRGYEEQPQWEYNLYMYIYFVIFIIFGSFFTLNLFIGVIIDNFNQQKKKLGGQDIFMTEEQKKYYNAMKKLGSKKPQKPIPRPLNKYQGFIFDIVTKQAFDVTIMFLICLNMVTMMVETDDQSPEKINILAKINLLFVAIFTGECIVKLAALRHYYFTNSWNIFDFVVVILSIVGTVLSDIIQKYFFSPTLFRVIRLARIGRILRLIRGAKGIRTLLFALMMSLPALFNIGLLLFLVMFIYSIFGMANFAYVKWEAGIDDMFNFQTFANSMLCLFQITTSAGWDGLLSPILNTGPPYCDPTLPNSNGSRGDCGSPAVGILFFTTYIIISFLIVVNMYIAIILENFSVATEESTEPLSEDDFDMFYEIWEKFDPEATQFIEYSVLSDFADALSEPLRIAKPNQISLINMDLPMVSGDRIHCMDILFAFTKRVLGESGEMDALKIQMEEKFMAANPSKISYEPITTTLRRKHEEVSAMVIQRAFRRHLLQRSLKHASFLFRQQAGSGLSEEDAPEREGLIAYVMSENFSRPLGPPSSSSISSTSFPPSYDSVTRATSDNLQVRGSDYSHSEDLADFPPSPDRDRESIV
ENDPOINT: pIC50
Lab note: report pIC50 as minus log10 of the concentration in molar units, number only.

Request body: readout pIC50, system human NaV1.5 (Homo sapiens, UniProt Q14524), query Cc1cc(C(C)(C)C)ccc1OCC(O)CNCc1cc(C)c(C)s1 (stereo not shown) [Compound Z8739902234] . Return the value.
5.29
